These measurements were taken from paper PMC5540273.

- System: CSNK1G2
- Condition Set: concentration: 1 μM, replicates: in singlicate; n = 1;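 further: KINOMEscan kinase panel screen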
Measurement Type: %Inh (%)
Please give a number only; it is taken to be in %.

Field %Inh (entry OCCOCCn1ccc2ncnc(Nc3ccc(Oc4cccc(Cl)c4)c(Cl)c3)c21 ) reads 0

Field %Inh (entry Cl.Fc1ccccc1COc1ccc(Nc2ncnc3ccc(-c4nnc(C(F)(F)F)o4)cc23)cc1Cl ) reads 0

Field %Inh (entry Nc1n[nH]c2nnc(-c3ccccc3)cc12 ) reads 0

Field %Inh (entry N#Cc1ccc(Oc2ccc(Nc3ncnc4cc[nH]c34)cc2Cl)cc1 ) reads 25

Field %Inh (entry Cc1ccc(NC(=O)c2cccc(C#N)c2)cc1-c1ccc(C(=O)Nc2ccncc2)cc1 ) reads 1

----------
- Tested on: SRPK2
- Condition Set: concentration: 1 μM, replicates: in singlicate; n = 1
Measurement Type: %Inh (%)
Please give a number only; it is taken to be in %.

Examples with their reported %Inh follow.
Molecule	Result
O=c1cc(N2CCOCC2)nc2n(Cc3cccc(Cl)c3)ccn12	0
CN1c2ccc(-c3ccc(C(=O)NCCO)cc3)cc2-c2[nH]ncc2S1(=O)=O	5
CCC(CC)(CC)n1cnc2c(N)ncnc21	20
Clc1ccc(-c2cc(-c3c[nH]nc3-c3ccccn3)ccn2)cc1	0
Fc1ccc(-c2ncn(CCCNCc3ccccc3)c2-c2ccncc2)cc1	4
CCc1nc(-c2cccc(N(C)S(=O)(=O)c3ccccc3)c2)c(-c2ccnc(Nc3ccc(N4CCN(C(C)=O)CC4)nc3)n2)s1	0
Cc1ccc(O)cc1Nc1cc(C(F)(F)F)nc2ccc(-c3ccncc3)cc12	0
Fc1ccc(Nc2nccc(-c3c(-c4ccc(Cl)cc4)nn4ncccc34)n2)cc1F	0
COc1cc2c(Nc3cccc(NC(=O)c4ccccc4)c3)ncnc2cc1OCCCN1CCOCC1	0
CCc1nc(-c2cccc(C)c2)c(-c2ccnc(NC(=O)c3ccccc3)c2)s1	0

Field %Inh (entry COc1ccc(Nc2nccc(N3CCC(NC(=O)Nc4ccc5c(c4)OCO5)C3)n2)cc1 (stereo not drawn) ) reads 3

Field %Inh (entry FC(F)(F)c1ccc(-c2nn3ncccc3c2-c2ccnc(Nc3cccc(C(F)(F)F)c3)n2)cc1 ) reads 36

Field %Inh (entry Cl.c1ccc(Cn2ccc3cc(Nc4ncnc5ccccc45)ccc32)cc1 ) reads 0

Field %Inh (entry COc1ccc(-c2oc3ncnc(N)c3c2-c2ccc(OC)cc2)cc1 ) reads 53

Field %Inh (entry Cn1ccc2ncnc(Nc3ccc(Oc4cccc(Cl)c4)c(Cl)c3)c21 ) reads 0

Field %Inh (entry Fc1cccc(COc2ccc(Nc3ncnc4cc[nH]c34)cc2Cl)c1 ) reads 7

Field %Inh (entry Oc1ccc2ncnc(Nc3ccc(OCc4ccccc4)cc3)c2c1 ) reads 0

Field %Inh (entry Cl.Fc1ccccc1COc1ccc(Nc2ncnc3ccc(-c4nnc(C(F)(F)F)o4)cc23)cc1Cl ) reads 3

----------
- Test system: PAK2
- Condition Set: concentration: 1 μM, replicates: in singlicate; n = 1
Measurement Type: %Inh (%)
Please give a number only; it is taken to be in %.

Examples with their reported %Inh follow.
Molecule	Target	Units Text	%Inh
NC(=O)c1sc(-n2cnc3ccccc32)cc1OCc1ccccc1F	PAK2	%	16
COc1ccc(NC(=O)Nc2ccc(C)c(-c3ccc(C(=O)Nc4ccncc4)cc3)c2)cc1	PAK2	%	0

Field %Inh (entry Fc1cccc(COc2ccc(Nc3ncnc4cc[nH]c34)cc2Cl)c1 ) reads 35

Field %Inh (entry CN1CCC(n2cnc(-c3ccc(F)cc3)c2-c2ccnc(NC3CCNCC3)n2)CC1 ) reads 14

Field %Inh (entry Cc1cc(N2CCC(NS(=O)(=O)c3ccc(F)cc3)CC2)nc(Nc2cccc(C#N)c2)n1.O=C(O)C(F)(F)F ) reads 19

Field %Inh (entry CNc1nccc(-c2c(-c3ccc(F)cc3)ncn2CCCN2CCOCC2)n1 ) reads 85

Field %Inh (entry N#Cc1ccc(Oc2ccc(Nc3ncnc4cc[nH]c34)cc2Cl)cc1 ) reads 45

Field %Inh (entry CCn1c(-c2ccncc2)nc2cnccc21 ) reads 47

Field %Inh (entry Nc1n[nH]c2nnc(-c3ccccc3)cc12 ) reads 8

Field %Inh (entry CC(C)(C)OC(=O)NC1CCCN(c2cc(-c3ccc4c(N)n[nH]c4c3)nc(N)n2)C1 (stereo not shown) ) reads 1

Field %Inh (entry CC(C)N1CCC(n2cnc(-c3ccc(F)cc3)c2-c2ccnc(N)n2)CC1 ) reads 23

Field %Inh (entry Cn1ccc2ncnc(Oc3ccc(NC(=O)Nc4cccnc4)c(Cl)c3)c21 ) reads 24

Field %Inh (entry CN1c2ccc(-c3ccc(C(=O)NCCO)cc3)cc2-c2[nH]ncc2S1(=O)=O ) reads 32

Field %Inh (entry FC(F)(F)c1ccc(-c2cc(-c3c[nH]nc3-c3ccccn3)ccn2)cc1 ) reads 28

Field %Inh (entry Nc1nccc2scc(-c3ccc4c(c3)CCN4C(=O)Cc3cc(F)ccc3F)c12 ) reads 0

Field %Inh (entry Nc1nc(-c2ccccn2)c(-c2ccnc3ccccc23)s1 ) reads 0

Field %Inh (entry Nc1nc(-c2ccc3c(N)n[nH]c3c2)cc(N2CCCCC2)n1 ) reads 20

Field %Inh (entry Oc1ccc2ncnc(Nc3ccc(OCc4ccccc4)cc3)c2c1 ) reads 29

Field %Inh (entry O=C(NCCCN1CCCC1=O)c1cnc(NCc2cc(Cl)ccc2Cl)nc1NC1CCNCC1 ) reads 0

----------
- Test system: PKMYT1
- Condition Set: concentration: 1 μM, replicates: in singlicate; n = 1
Form field: %Inh (one value per entry).
Please give a number only; it is taken to be in %.

Examples with their reported %Inh follow.
Molecule	Units Text	Result
Nc1nc(-c2ccc3c(N)n[nH]c3c2)cc(N2CCCCC2)n1 [GSK2228768]	%	13
Cn1cc(-c2ccc3c(c2)CCN3C(=O)Cc2cccc(C(F)(F)F)c2)c2c(N)ncnc21 [GSK2606414]	%	5
O=c1cc(N2CCOCC2)nc2n(Cc3cccc(Cl)c3)ccn12 [GSK2296823]	%	11
Fc1cccc(COc2ccc(Nc3ncnc4sc(-c5ccc[nH]5)cc34)cc2Cl)c1 [GW707818]	%	0
OCCOCCn1ccc2ncnc(Nc3ccc(Oc4cccc(Cl)c4)c(Cl)c3)c21	%	0

Field %Inh (entry COc1cc2c(Nc3cccc(NC(=O)c4ccccc4)c3)ncnc2cc1OCCCN1CCOCC1 [GSK223810] ) reads 7

Field %Inh (entry CNc1nccc(-c2c(-c3ccc(F)cc3)ncn2CCCN2CCOCC2)n1 [SB-222516] ) reads 0

Field %Inh (entry O=C(NCCCN1CCCC1=O)c1cnc(NCc2cc(Cl)ccc2Cl)nc1NC1CCNCC1 ) reads 0

Field %Inh (entry CCn1c(-c2ccncc2)nc2cnccc21 [SB-735216] ) reads 6

----------
Form field: %Inh (one value per entry).
- Test system: CSK
- Condition Set: concentration: 1 μM, replicates: in singlicate; n = 1
Please give a number only; it is taken to be in %.

Compound	Target	Measurement Type	Units Text	Result
Cc1cc(N2CCC(NS(=O)(=O)c3ccc(F)cc3)CC2)nc(Nc2cccc(C#N)c2)n1.O=C(O)C(F)(F)F	CSK	%Inh	%	0

Field %Inh (entry COc1ccc(Nc2nccc(N3CCC(NC(=O)Nc4ccc5c(c4)OCO5)C3)n2)cc1 (stereo not shown) ) reads 0

Field %Inh (entry CCc1nc(-c2cccc(N(C)S(=O)(=O)c3ccccc3)c2)c(-c2ccnc(Nc3ccc(N4CCN(C(C)=O)CC4)nc3)n2)s1 ) reads 50

Field %Inh (entry Nc1nc(-c2ccc3c(N)n[nH]c3c2)cc(N2CCCCC2)n1 ) reads 0

----------
- System: GAK
- Condition Set: concentration: 1 μM, replicates: in singlicate; n = 1
Measurement Type: %Inh (%)
Please give a number only; it is taken to be in %.

Examples with their reported %Inh follow.
CSc1nn2c(=O)cc(N3CCOCC3)nc2n1Cc1cccc(Cl)c1Cl 9
O=C(CCO)NCCn1ccc2ncnc(Nc3ccc(Oc4cccc(C(F)(F)F)c4)c(Cl)c3)c21 0
FC(F)(F)c1ccc(-c2cc(-c3c[nH]nc3-c3ccccn3)ccn2)cc1 46

Field %Inh (entry O=C(NCCCN1CCCC1=O)c1cnc(NCc2cc(Cl)ccc2Cl)nc1NC1CCNCC1 ) reads 0

Field %Inh (entry O=c1cc(N2CCOCC2)nc2n(Cc3cccc(Cl)c3)ccn12 ) reads 2

----------
Form field: %Inh (one value per entry).
- Test system: PIP5K1A
- Condition Set: concentration: 1 μM, replicates: in singlicate; n = 1
Please give a number only; it is taken to be in %.

Examples with their reported %Inh follow.
Nc1n[nH]c2nnc(-c3ccccc3)cc12 0
CCn1c(-c2ccncc2)nc2cnccc21 28
Oc1ccc2ncnc(Nc3ccc(OCc4ccccc4)cc3)c2c1 0
O=C(Nc1n[nH]c2nc(-c3ccco3)c(Br)cc12)c1ccc(CN2CCCC2)cc1.O=C(O)[C@H](O)[C@@H](O)C(=O)O 0

# input for lookup
Field %Inh (entry Cn1ccc2ncnc(Oc3ccc(NC(=O)Nc4cccnc4)c(Cl)c3)c21 ) reads 0
